Where do these numbers come from? They come from a melting point compilation (Tetko et al.; mined from patent text by program, amines drawn as free bases though some values may be those of a salt).

measured.endpoint: melting point

These recorded examples may help you get a feel for the data.
                                   molecule  measured_endpoint          value
0  Nc1nc(C[C@H](NC(=O)[C@H](Cc2ccccc2)NS(=O)(=O)N2CCOCC2)C(=O)O)cs1      melting point  149 to 151 °C
1            COc1cccc(Cc2nnc(SC)[nH]c2=O)c1      melting point  185 to 186 °C
2  O=C1N(CC2CCCO2)c2cc(F)ccc2C12COc1cc3c(cc12)CCO3 (stereo not given)      melting point  137 to 139 °C

Go through the items and report each one's melting point.
1. CCc1cc(Br)c2c(=O)oc(=O)[nH]c2c1
2. Cc1ccc(S(=O)(=O)N2CC3C(C2)C3Nc2ncc3cc(-c4ccccc4Cl)c(=O)n(C4CC4)c3n2)cc1 (stereo not given)
3. COc1cc(OC)cc(-c2nc[nH]c2-c2ccc(OC)c(O)c2O)c1
4. O=C1CCNc2nc(Br)ccc21
5. CCc1cccc2c1CCN([C@@H]1CN3CCC1CC3)C2=O
6. CCCCCCCCc1ccc(OCC(O)Cn2ccc3cc(C(N)=O)ccc32)cc1 (stereo not given)
7. O=C(O)c1cn(C2CC2)c2c(F)c(N3CCC(n4cc(-c5ccccc5)nn4)C3)c(F)cc2c1=O (stereo not given)

1: 236 to 237 °C; 2: 265 to 274 °C; 3: 132 to 134 °C; 4: 196 to 197 °C; 5: > 290 °C; 6: 118 to 119 °C; 7: 241 °C

----------
measured.endpoint: melting point

Some compounds with known melting point results, for comparison:
                                   compound  measured_endpoint        value
0     O=Cc1c[nH]c2c1ccc1c2[nH]c2cccc(Br)c21      melting point     > 250 °C
1  NC(=O)c1ccc(CCCNCC(O)c2ccccc2)s1 (centres undefined)      melting point  94 to 96 °C
2               CCCCc1c(C=O)ccc2cc(OC)ccc12      melting point  56 to 57 °C

Give me melting point for each of these compounds, listed below.
1. Cc1nc(C(=O)NS(=O)(=O)c2c(C)csc2C(=O)OC(C)C)no1
2. CCCC(C(=O)N(C)C)n1cc(C)c(-c2ccco2)n1 (centres undefined)
3. CCOP(=O)(COCC(CO)On1cnc2c(=O)[nH]c(N)nc21)OCC (centres undefined)
4. Nc1ncnc2c1ncn2C[C@@H](CF)OCP(=O)(O)O
5. CCOC(=O)c1c(N2CCN(C=O)CC2)c2cc(C)ccc2n(-c2ccccc2)c1=O
6. COC(=O)N(C)C1CN(C(=O)Nc2ccc(OC(F)(F)F)cc2)N=C1c1ccc(OC(F)F)cc1 (centres undefined)
7. CCNC(=O)NCc1cccc2c1C(=O)N(C1(C)CCC(=O)NC1=O)C2=O (centres undefined)
8. CCCCCCCCCCc1ccc(C(=O)c2cc(Br)c(C(=O)c3ccc(CCCCCCCCCC)cc3)cc2Br)cc1

1. 142 °C
2. 107 to 109 °C
3. 238 to 240 °C
4. 194 to 197 °C
5. 240 °C
6. 125 to 126 °C
7. 220 to 222 °C
8. 128 to 129 °C

Hi! Can you tell me melting point for each of these compounds?
1. CCc1cc(OCc2ccc(-c3ccccc3-c3nnn(C(c4ccccc4)(c4ccccc4)c4ccccc4)n3)cc2)c2c(n1)COCC2
2. CCc1c(CC)n(Cc2ccccc2Cl)c2cc(C(N)=O)ccc12
3. CCOC(=O)C(NC(=O)OC(C)(C)C)c1csc(NC(=O)OCC(Cl)(Cl)Cl)n1 (centres undefined)
4. O=C(Nc1ccc(F)c(NC(=S)Nc2cc(Cl)cc(Cl)c2)c1)c1ccc(F)c(F)c1
5. Oc1cccc(CCc2nc(-c3ccccc3)c(-c3ccccc3)s2)c1
6. C=Cc1ccc(NC(=O)OCC2(C)COC(=O)OC2)cc1

["168 to 170 °C", "185 to 188 °C", "94 to 95 °C", "197 °C", "166 to 168 °C", "120 to 121 °C"]

# batch size: 2; output melting point per entry
1. N/C(=C1/Sc2ccccc2C1=O)c1ccccc1[N+](=O)[O-]
2. O=[N+]([O-])C1CC=CCC1c1ccccc1 (centres undefined)

1: 185 to 186 °C; 2: 114 to 116 °C

Return reported melting point values for all items listed beneath this line.
1. Cc1cc(OCC(=O)c2ccc(C(C)C)cc2)c(C)c(C)c1Br
2. CCc1nc(C(=O)c2ccc(Cl)cc2Cl)c(C(C)=O)n1C(CC)CC
3. CCC(=O)NCCC1CCc2ccc3nc(C)oc3c21 (centres undefined)

71 to 72 °C
63 to 64 °C
111 to 113 °C

----------
measured.endpoint: melting point

# count of solved cases: 4
In [3]: df
Out[3]:
                                   compound          value
0  O=C(Nc1ccc(N2CCC(NC[C@H](O)COc3cccc4[nH]c5ccccc5c34)CC2)cc1)c1ccc2c(c1)OCO2  217 to 223 °C
1  Cc1cccc(CC(=O)c2ccnc(-c3ccc(C(=O)NC4CCOCC4)cc3)c2)n1         210 °C
2         N#Cc1ccc(Nn2cnnc2)cc1-c1ccc(F)cc1  231 to 234 °C
3  CC(=O)NC(C(=O)Nc1ccc(C(=O)OCc2ccccc2)cc1)c1ccc2c(c1)C(C)(C)CCC2(C)C (centres undefined)  258 to 259 °C

Count: 5. Required value per item: melting point.
1. COc1ccc(NC(=O)c2ccncc2)c2c1oc1ccccc12
2. COC(=O)C1(CCCN2CCN(c3ccccc3)CC2)Sc2ccccc2CCC1=O (centres undefined)
3. CN(C1CCN(c2ncc3ncnc(Nc4ccc(F)c(Cl)c4)c3n2)CC1)S(C)(=O)=O
4. Fc1ccc(N2CCC(NCc3ccn4c(CC5CC5)nnc4c3C(F)(F)F)CC2)c(F)c1
5. CC1=NNC(c2ccc3c(c2)Nc2nccnc2S3)=NN1

1. 221 °C
2. 101 to 103 °C
3. 225 to 227 °C
4. 118 °C
5. 233 to 235 °C

----------
measured.endpoint: melting point

Give melting point for each listed item.
1. CCn1c(=O)c2c(O)cc(=O)oc2c2ccc(Cl)cc21
2. O=C1c2ccc(Cl)c3c(N4CCCC4)cc(Cl)c(c23)C(=O)N1O

["276 to 278 °C", "243 to 245 °C"]

// for each compound in input: emit melting point
1. CC1COc2cc(Oc3ccc(NC(=O)N(C)C)cn3)ccc21 (configuration not stated)
2. CC(=O)Nc1cccc(-c2ccc(C#N)c(=O)[nH]2)c1
3. CCOC(=O)c1ccc(N2CCC(N)CC2)nc1

153 to 154 °C
326 to 328 °C
148 to 150 °C

Hi team, please reply with melting point for each item in this list.
1. CSc1nc(-c2cccnc2)n(-c2ccc(F)cc2)c(=O)c1C#N
2. N#Cc1cccc(-c2cnc3cnc(-c4ccc(O)cc4)nc3c2)c1
3. Cc1c(C)n(CC=Cc2ccccc2)c2c(OCc3ccc(F)cc3)nncc12
4. CCOC(=O)CCC1CCC(=O)N1 (configuration not stated)
5. CCC1(CCCCN2CCN(c3ccccc3Cl)CC2)C(=O)Nc2ccccc21 (configuration not stated)
6. O=C1NC(=O)C2(CCCN3CCN(c4ccc(Cl)cc4)CC3)C=CC=CC12 (configuration not stated)
7. CCCCCCCCNC1=CC(=O)c2c(OC)ccc(OC)c2C1=O

1: 190 to 193 °C; 2: > 268 °C; 3: 124 to 126 °C; 4: 60 to 61 °C; 5: 145 to 148 °C; 6: 120 °C; 7: 81 to 82 °C

Provide each entry's melting point from the list below.
1. CCC(=O)c1ccc(C(=O)CC)cc1
2. Cc1cc(-c2cc(=O)c3cccnc3o2)ccc1O
3. COc1c(C)c2c(c(O)c1CC=C(C)CC(C)C(=O)O)C(=O)OC2 (configuration not stated)
4. Cc1ccc2c(c1)C1CN(Cc3ccccc3)CCC1N2 (configuration not stated)

1. 98 to 101 °C
2. 300 to 302 °C
3. 122 to 123 °C
4. 179 to 182 °C

Respectfully, I request melting point for each entry included below.
1. N#Cc1ccc(-c2ccc(OCC(COc3ccccc3)N(O)C=O)cc2)cc1 (configuration not stated)
2. Cn1c(=S)c(C(=O)C2=C(O)CCCC2=O)nc2ccccc21
3. CCOC(=O)c1cn(-c2cc(N)c(F)c(F)c2F)c2cc(F)c(F)cc2c1=O
4. CN1CCN(c2cc([N+](=O)[O-])ccc2Br)CC1
5. CCNSc1ccc([N+](=O)[O-])cc1C(Cl)(Cl)Cl
6. CC(C)(C)C(CSC(F)F)=NO

["133 to 135 °C", "> 300 °C", "116 to 124 °C", "100 to 103 °C", "80 °C", "92 to 95 °C"]
